// values below are reported inhibition at 10 µM
Target Or System: mouse GnRH receptor (Mus musculus)
Construct: expressed in transfected cells; host or cells: 293 cells
Sequence (Q01776 whole entry): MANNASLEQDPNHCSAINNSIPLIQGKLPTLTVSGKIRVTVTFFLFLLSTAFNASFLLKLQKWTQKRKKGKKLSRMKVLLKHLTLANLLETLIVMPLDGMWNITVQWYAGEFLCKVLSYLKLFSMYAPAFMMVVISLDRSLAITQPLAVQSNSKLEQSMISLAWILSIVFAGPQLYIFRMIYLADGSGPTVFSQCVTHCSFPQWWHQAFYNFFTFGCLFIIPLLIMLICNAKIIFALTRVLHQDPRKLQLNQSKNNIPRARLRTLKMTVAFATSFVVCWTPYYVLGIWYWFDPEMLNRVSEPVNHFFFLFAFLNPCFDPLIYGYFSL
Test Name: Radioligand binding, 125I-GnRH-A, 293 cells expressing mouse GnRH receptors
Run Parameters: 10 uM; read-out: % Inhib. @ 10 uM mGnRH
Give just the numeric value; % need not be written.

compound="Cc1cc2c(cc1Cc1ccc(C(=O)NC[C@@H]3CCCC[C@H]3O)o1)C(C)(C)CCC2(C)C [drawing 1466]" target_or_system="mouse GnRH receptor (Mus musculus)" reported_value=97
compound="C=C(C)CNC(=O)c1ccc(Cc2cc3c(cc2C)C(C)(C)CCC3(C)C)o1 [drawing 1573]" target_or_system="mouse GnRH receptor (Mus musculus)" reported_value=93
compound=Cc1cc2c(cc1Cc1ccc(C(=O)NCC3CC3)o1)C(C)(C)CCC2(C)C target_or_system="mouse GnRH receptor (Mus musculus)" reported_value=86

Now look at this one.
In: Which inhibition at 10 µM value belongs to Cc1cc2c(cc1Cc1ccc(C(=O)N(CCc3ccccc3)Cc3ccoc3)o1)C(C)(C)CCC2(C)C [drawing 1557] ?
Out: 61
